This collection of values is drawn from patent US20220235068A1.

Test: Single-dose pharmacokinetic study in mice
Assay type: in vivo
Conditions: mouse, plasma; male CD-1 mice; IV: 2 mg/kg; PO: 10 mg/kg
Structures can show the parent of a compound that is named as a salt.
EXPERIMENTAL_ENDPOINT: clearance (mL/min/kg)
Please reply with the bare figure in mL/min/kg and do not write the unit itself.

clearance recorded for this molecule, O=c1[nH]c([C@H]2CC3CCN2CC3)nc2c3c(sc12)-c1c[nH]nc1CCC3 (single isomer, unassigned) [Compound 1-1 hydrochloride] , is 35.2

---

// IC50 lookup, one value per entry
Target: Cdc7/DBF4 (Homo sapiens, UniProt O00311)
Sequence (O00311 whole entry): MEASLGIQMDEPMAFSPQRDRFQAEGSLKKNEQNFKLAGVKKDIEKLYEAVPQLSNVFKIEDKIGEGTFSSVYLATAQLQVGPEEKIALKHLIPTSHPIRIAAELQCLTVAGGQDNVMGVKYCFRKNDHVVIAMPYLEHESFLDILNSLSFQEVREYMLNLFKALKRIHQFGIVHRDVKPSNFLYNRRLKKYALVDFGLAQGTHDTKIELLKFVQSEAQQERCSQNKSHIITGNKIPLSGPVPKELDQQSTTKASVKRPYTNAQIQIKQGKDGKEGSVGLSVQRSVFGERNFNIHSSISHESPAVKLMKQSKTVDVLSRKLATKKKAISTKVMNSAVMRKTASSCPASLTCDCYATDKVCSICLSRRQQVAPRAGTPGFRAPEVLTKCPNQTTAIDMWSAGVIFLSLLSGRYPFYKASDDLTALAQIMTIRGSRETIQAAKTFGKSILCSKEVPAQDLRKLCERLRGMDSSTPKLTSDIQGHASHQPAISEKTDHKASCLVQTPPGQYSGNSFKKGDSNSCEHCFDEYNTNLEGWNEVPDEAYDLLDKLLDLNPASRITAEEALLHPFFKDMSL
Sequence (Q9UBU7 whole entry partner): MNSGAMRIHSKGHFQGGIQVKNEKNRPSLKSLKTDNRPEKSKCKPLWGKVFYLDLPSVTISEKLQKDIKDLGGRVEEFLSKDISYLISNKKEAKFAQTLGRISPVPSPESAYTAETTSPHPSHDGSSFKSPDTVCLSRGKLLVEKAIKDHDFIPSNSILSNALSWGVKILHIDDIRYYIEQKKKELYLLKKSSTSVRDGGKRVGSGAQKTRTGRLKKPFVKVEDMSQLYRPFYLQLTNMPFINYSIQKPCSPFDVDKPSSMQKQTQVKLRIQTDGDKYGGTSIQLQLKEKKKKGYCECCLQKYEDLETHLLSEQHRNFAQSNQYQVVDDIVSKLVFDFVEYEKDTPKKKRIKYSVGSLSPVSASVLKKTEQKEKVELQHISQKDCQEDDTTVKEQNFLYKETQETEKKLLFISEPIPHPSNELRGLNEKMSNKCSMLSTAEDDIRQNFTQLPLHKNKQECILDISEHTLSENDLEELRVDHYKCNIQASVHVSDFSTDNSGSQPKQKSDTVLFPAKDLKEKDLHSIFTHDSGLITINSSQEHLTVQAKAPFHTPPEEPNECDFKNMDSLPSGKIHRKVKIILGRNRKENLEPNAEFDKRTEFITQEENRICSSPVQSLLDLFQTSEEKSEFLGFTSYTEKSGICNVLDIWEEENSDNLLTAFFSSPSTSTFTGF
Assay: Inhibitory effect against activity of Cdc7/DBF4 (ADP-Glo kinase detection kit)
Conditions: 10 μM ATP, 25° C., 60 min
Structures can show the parent of a compound that is named as a salt.
Please reply with the bare figure in nM and do not write the unit itself.

IC50 recorded for this compound, CC(C)N1CCCC1c1nc2c3c(sc2c(=O)[nH]1)-c1c[nH]nc1CCC3 (single isomer, unassigned) [Compound 6-2 hydrochloride] , is 0.99

IC50 recorded for this compound, O=c1[nH]c(C2CCCN2)nc2c3c(sc12)-c1c[nH]nc1CCC3 (single isomer, unassigned) [Compound 2-2 hydrochloride] , is 1.52

IC50 recorded for this compound, CN1CCCC1c1nc2c3c(sc2c(=O)[nH]1)-c1c[nH]nc1CCC3 (single isomer, unassigned) [Compound 3-1 hydrochloride] , is 1.19

IC50 recorded for this compound, CN1CCCC(c2nc3c4c(sc3c(=O)[nH]2)-c2c[nH]nc2CCC4)C1 (single isomer, unassigned) [Compound 9-2 hydrochloride] , is 1.09

IC50 recorded for this compound, O=c1[nH]c(C2CCCN2)nc2c3c(sc12)-c1c[nH]nc1CCC3 (single isomer, unassigned) [Compound 2-1 hydrochloride] , is 3.73

IC50 recorded for this compound, O=c1[nH]c([C@H]2CC3CCN2CC3)nc2c3c(sc12)-c1c[nH]nc1CCC3 (single isomer, unassigned) [Compound 1-1 hydrochloride] , is 3.02

IC50 recorded for this compound, CC1(c2nc3c4c(sc3c(=O)[nH]2)-c2c[nH]nc2CCC4)CCCN1 (single isomer, unassigned) [Compound 4-1 hydrochloride] , is 4.56

IC50 recorded for this compound, CC1(c2nc3c4c(sc3c(=O)[nH]2)-c2c[nH]nc2CCC4)CCCN1 (single isomer, unassigned) [Compound 4-2 hydrochloride] , is 6.73

IC50 recorded for this compound, CN1CCC(C)(c2nc3c4c(sc3c(=O)[nH]2)-c2c[nH]nc2CCC4)CC1 [Compound 13 hydrochloride] , is 5.66

IC50 recorded for this compound, CN1CCCC1c1nc2c3c(sc2c(=O)[nH]1)-c1c[nH]nc1CCC3 (single isomer, unassigned) [Compound 3-2 hydrochloride] , is 0.42

IC50 recorded for this compound, O=c1[nH]c(C2CCCNC2)nc2c3c(sc12)-c1c[nH]nc1CCC3 (single isomer, unassigned) [Compound 8-1 hydrochloride] , is 4.27

IC50 recorded for this compound, CC1(c2nc3c4c(sc3c(=O)[nH]2)-c2c[nH]nc2CCC4)CCNCC1 [Compound 12 hydrochloride] , is 1.38

IC50 recorded for this compound, CN1CCCCC1c1nc2c3c(sc2c(=O)[nH]1)-c1c[nH]nc1CCC3 (single isomer, unassigned) [Compound 7-1 formate] , is 3.07

IC50 recorded for this compound, O=c1[nH]c(C2CCCNC2)nc2c3c(sc12)-c1c[nH]nc1CCC3 (single isomer, unassigned) [Compound 8-2 hydrochloride] , is 1.17

IC50 recorded for this compound, CC(C)N1CCCC1c1nc2c3c(sc2c(=O)[nH]1)-c1c[nH]nc1CCC3 (single isomer, unassigned) [Compound 6-1 hydrochloride] , is 1.7

IC50 recorded for this compound, CN1CCCC1(C)c1nc2c3c(sc2c(=O)[nH]1)-c1c[nH]nc1CCC3 (single isomer, unassigned) [Compound 5-2 hydrochloride] , is 2.35

IC50 recorded for this compound, CN1CCC(c2nc3c4c(sc3c(=O)[nH]2)-c2c[nH]nc2CCC4)CC1 [Compound 11 hydrochloride] , is 4.85

IC50 recorded for this compound, O=c1[nH]c(C2C3CCN2CC3)nc2c3c(sc12)-c1c[nH]nc1CCC3 (single isomer, unassigned) [Compound 14-2 hydrochloride] , is 1.43

IC50 recorded for this compound, O=c1[nH]c([C@H]2CC3CCN2CC3)nc2c3c(sc12)-c1c[nH]nc1CCC3 (single isomer, unassigned) [Compound 1-2 hydrochloride] , is 1.29

IC50 recorded for this compound, O=c1[nH]c(C2C3CCN2CC3)nc2c3c(sc12)-c1c[nH]nc1CCC3 (single isomer, unassigned) [Compound 14-1 hydrochloride] , is 1.21

---

Assay: Single-dose pharmacokinetic study in mice
Assay type: in vivo
Details: mouse, plasma; male CD-1 mice; IV: 2 mg/kg; PO: 10 mg/kg; read-out: Apparent volume of distribution
Method: To evaluate the pharmacokinetic behavior by using male CD-1 mice as test animals and determining the drug concentrations of the compounds in the plasma after single-dose administration. Healthy adult male CD-1 mice were selected for intragastric administration. […] After pretreatment of the samples, the drug concentration was measured by LC-MS/MS, and pharmacokinetic parameters were calculated using Phoenix WinNonlin software.
Where a name gives a salt, the structure may show the parent alone.
EXPERIMENTAL_ENDPOINT: Vd (L/kg)
Please reply with the bare figure in L/kg and do not write the unit itself.

Vd recorded for this molecule, O=c1[nH]c([C@H]2CC3CCN2CC3)nc2c3c(sc12)-c1c[nH]nc1CCC3 (single isomer, unassigned) [Compound 1-1 hydrochloride] , is 4.13

---

Assay: Single-dose pharmacokinetic study in mice
Format: in vivo
Conditions: mouse, plasma; male CD-1 mice; IV: 2 mg/kg; PO: 10 mg/kg
Procedure: To evaluate the pharmacokinetic behavior by using male CD-1 mice as test animals and determining the drug concentrations of the compounds in the plasma after single-dose administration. Healthy adult male CD-1 mice were selected for intragastric administration. […] After pretreatment of the samples, the drug concentration was measured by LC-MS/MS, and pharmacokinetic parameters were calculated using Phoenix WinNonlin software.
Counter-ions that a name gives are not always drawn.
EXPERIMENTAL_ENDPOINT: bioavailability
Respond with a number, then the unit of measure.

bioavailability recorded for this compound, O=c1[nH]c([C@H]2CC3CCN2CC3)nc2c3c(sc12)-c1c[nH]nc1CCC3 (single isomer, unassigned) [Compound 1-1 hydrochloride] , is 71.4%

---

Assay: Single-dose pharmacokinetic study in mice
Type: in vivo
Settings: mouse, plasma; male CD-1 mice; IV: 2 mg/kg; PO: 10 mg/kg
Where a name gives a salt, the structure may show the parent alone.
EXPERIMENTAL_ENDPOINT: half-life (h)
Please reply with the bare figure in h and do not write the unit itself.

half-life recorded for this compound, O=c1[nH]c([C@H]2CC3CCN2CC3)nc2c3c(sc12)-c1c[nH]nc1CCC3 (single isomer, unassigned) [Compound 1-1 hydrochloride] , is 4.03

---

Experiment: Single-dose pharmacokinetic study in mice
Assay type: in vivo
Conditions: mouse, plasma; male CD-1 mice; IV 2 mg/kg; read-out: AUC0-last (intravenous injection)
Structures can show the parent of a compound that is named as a salt.
EXPERIMENTAL_ENDPOINT: AUC(0-t) (µM·h)
Please reply with the bare figure in µM·h and do not write the unit itself.

AUC(0-t) recorded for this compound, O=c1[nH]c([C@H]2CC3CCN2CC3)nc2c3c(sc12)-c1c[nH]nc1CCC3 (single isomer, unassigned) [Compound 1-1 hydrochloride] , is 2.45

---

Target: Cdc7/DBF4 (Homo sapiens)
Test: Inhibitory effect against activity of Cdc7/DBF4 (ADP-Glo kinase detection kit)
Settings: 10 μM ATP, 25° C., 60 min
Where a name gives a salt, the structure may show the parent alone.
EXPERIMENTAL_ENDPOINT: pIC50
Recall that pIC50 is obtained by taking minus log10 of the concentration measured in molar.

MOLECULE | TARGET | pIC50
CN1CCCCC1c1nc2c3c(sc2c(=O)[nH]1)-c1c[nH]nc1CCC3 (single isomer, unassigned) [Compound 7-2 formate] | Cdc7/DBF4 (Homo sapiens) | 8.57
CN1CCCC(c2nc3c4c(sc3c(=O)[nH]2)-c2c[nH]nc2CCC4)C1 (single isomer, unassigned) [Compound 9-1 hydrochloride] | Cdc7/DBF4 (Homo sapiens) | 8.31
O=c1[nH]c(C2CCNCC2)nc2c3c(sc12)-c1c[nH]nc1CCC3 [Compound 10 hydrochloride] | Cdc7/DBF4 (Homo sapiens) | 8.77

pIC50 recorded for this molecule, CN1CCCC1(C)c1nc2c3c(sc2c(=O)[nH]1)-c1c[nH]nc1CCC3 (single isomer, unassigned) [Compound 5-1 hydrochloride] , is 8.69
